# System: Saccharomyces cerevisiae
# assay details: protein stability index of tFT-peptide fusion (C-terminal peptide) (PSI (0-1 scale)); higher = more stable (slower turnover)
# condition parameters: genetic background: wild type; temperature: 30 C
Measured protein stability index determines class: lower range: < 0.6; middle range: ≥ 0.6 and < 0.7; upper range: ≥ 0.7

{"biosequence": "FFSSTVFLLFLP", "answer label": "lower range"}
{"biosequence": "EAKRSRCESAEI", "answer label": "middle range"}
{"biosequence": "VVLWWWVVARDL", "answer label": "lower range"}
{"biosequence": "IYVWALSPVTLP", "answer label": "middle range"}
{"biosequence": "DCLFQSKLNTYD", "answer label": "middle range"}
{"biosequence": "DENLYGGFRTSM", "answer label": "upper range"}
{"biosequence": "PPLPGHPCLWPT", "answer label": "middle range"}
{"biosequence": "VCFLCIWLYSED", "answer label": "lower range"}

Determine which band this sequence sits in: GQKKARGRGGGM upper range

Another sequence: SGTLYELNAVVV middle range

Another sequence: SAFFSAWVLVLD lower range

Another sequence: TVPNLTPALPPL lower range

Another sequence: ALWRAWLRLRIW lower range

Another sequence: LISSPKIHLRTY upper range

Another sequence: NQHNARTRWLCP middle range

Another sequence: RFYSKDLVHLST middle range

Another sequence: SRGLVPMANRYC lower range

Another sequence: GLWIRAEISLVS lower range

Another sequence: WPPPPPYSPFSL upper range

Another sequence: RDAVLSCARRSQ upper range

====

Consider the following sequences; for each one, report its protein stability index.
# Test system: Saccharomyces cerevisiae
# assay details: protein stability index of tFT-peptide fusion (C-terminal peptide) (PSI (0-1 scale)); higher = more stable (slower turnover)
# condition parameters: genetic background: cdc53-1; temperature: 37 C

Would you please look over these solved cases?
{"biosequence": "VHHAFLPYTLVR", "protein stability index": 0.57}
{"biosequence": "LHFHIYLIISPF", "protein stability index": 0.137}
{"biosequence": "RLMVHQHTIPVR", "protein stability index": 0.54}
{"biosequence": "GVFVWVVFVCTM", "protein stability index": 0.315}
{"biosequence": "LVSWAWIWIFVF", "protein stability index": 0.354}
{"biosequence": "GLLFWSGVVSWV", "protein stability index": 0.388}
{"biosequence": "SLSCYSFFVLAL", "protein stability index": 0.543}
{"biosequence": "CFSVFSVLCFFV", "protein stability index": 0.63}
{"biosequence": "SVFCSLFLFLFY", "protein stability index": 0.501}
{"biosequence": "VGAGVFAWLWVA", "protein stability index": 0.664}

Look at each sequence and report its protein stability index.
1. YTPPISRLLIFT
2. PLFLRPLSVPVL
3. FFCSLIISRFLL
4. VFCLPISAPPLH
5. LPSPLLFLPALF
6. LFDVLFVFSFIF

1. 0.532
2. 0.441
3. 0.608
4. 0.739
5. 0.788
6. 0.524

====

Consider the following sequences; for each one, report its protein stability index.
# System: Saccharomyces cerevisiae
# assay details: protein stability index of tFT-peptide fusion (C-terminal peptide) (PSI (0-1 scale)); higher = more stable (slower turnover)
# condition parameters: genetic background: wild type; temperature: 30 C
Numbers only.

{"biosequence": "LKTPQEYESKAK [BOL1 C-terminal 12 aa]", "observed property": "protein stability index", "observed": 0.753}

Look at each sequence and report its protein stability index.
1. QAYIYIYIHIVN [EST2 C-terminal 12 aa]
2. GATEKRKCAKPF [CSL4 C-terminal 12 aa]
3. DLSTRIYSLAYE [ELP2 C-terminal 12 aa]
4. IFLNDVYFNLMV [YPR126C C-terminal 12 aa]
5. VPLKEELFPSSS [COX6 C-terminal 12 aa]

1. 0.0717
2. 0.687
3. 0.665
4. 0.686
5. 0.674
